Reported enrichment ratio values for the following variants.
B1: PhoQ; a variant is named by its letters at X, in order, P23837 (parent)
chain: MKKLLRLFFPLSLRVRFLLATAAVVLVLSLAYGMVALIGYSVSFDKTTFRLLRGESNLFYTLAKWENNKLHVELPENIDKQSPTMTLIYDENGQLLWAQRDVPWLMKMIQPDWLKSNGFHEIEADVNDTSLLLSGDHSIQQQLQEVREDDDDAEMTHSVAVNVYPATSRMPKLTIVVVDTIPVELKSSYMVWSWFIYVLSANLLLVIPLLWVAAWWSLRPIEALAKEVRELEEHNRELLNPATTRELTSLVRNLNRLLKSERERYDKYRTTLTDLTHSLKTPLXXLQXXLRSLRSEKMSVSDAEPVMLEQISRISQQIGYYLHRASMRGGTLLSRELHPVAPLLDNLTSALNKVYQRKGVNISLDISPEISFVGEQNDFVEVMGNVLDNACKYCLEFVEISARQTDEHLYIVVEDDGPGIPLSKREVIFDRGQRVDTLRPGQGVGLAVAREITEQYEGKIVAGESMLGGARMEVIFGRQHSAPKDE

# Variants of: B1
# test-protocol: enrichment ratio after two sorts for PhoP signalling (ratio (wild type AVST 3.29)); higher = more functional
# condition-summary: with PhoP (E. coli)
Over roughly 140,000 sequences, “enrichment ratio after two sorts for PhoP signalling” has its median near 0; the highest 2% begin near 11. The full list was thinned out, with the highest values kept by preference.

>>> df
   changes  quantity_measured  result
0     TMCA   enrichment ratio     8.5

Data point: HGIC ; enrichment ratio = ≤ 0.25

Notebook: EVCN , enrichment ratio read as ≤ 0.25

So for TMCI , the logged enrichment ratio turned out to be 12.4

For SGNT the variant record lists enrichment ratio as ≤ 0.25

Please fill in: enrichment ratio reported for ICFI = ≤ 0.25

Entry ESNS — recorded enrichment ratio = ≤ 0.25

Documented enrichment ratio of FYES : ≤ 0.25

The measured enrichment ratio associated with HYIP reads ≤ 0.25
